# MEASUREMENT PROTOCOL: Cytotoxicity against human U87 cells assessed as reduction in cell viability after 24 hrs by MTT assay
# APPLIED CONDITIONS: U-87 MG
EXPERIMENTAL ENDPOINT: IC50 (µM)
Give just the numeric value; µM need not be written.

Consider H-TSFAEYWNLLSP-OH . Its measured IC50 is 67.6

Entry source: ChEMBL document CHEMBL4043224
